experimental_system: UniProt:P41145
Sequence (P41145 whole entry): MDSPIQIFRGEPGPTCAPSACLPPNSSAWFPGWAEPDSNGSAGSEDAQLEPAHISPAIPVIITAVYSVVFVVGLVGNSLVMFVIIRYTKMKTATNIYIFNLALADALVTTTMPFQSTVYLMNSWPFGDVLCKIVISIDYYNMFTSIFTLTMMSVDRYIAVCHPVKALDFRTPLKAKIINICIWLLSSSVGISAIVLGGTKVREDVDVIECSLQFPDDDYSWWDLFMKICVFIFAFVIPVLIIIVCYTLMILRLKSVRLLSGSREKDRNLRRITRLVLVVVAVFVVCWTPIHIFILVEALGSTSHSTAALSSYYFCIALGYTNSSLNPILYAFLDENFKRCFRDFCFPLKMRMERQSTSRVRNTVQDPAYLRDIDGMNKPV
assay_name: Agonist activity at human recombinant kappa opioid receptor expressed in CHO cells by [35S]GTPgammaS binding assay relative to (-)-U50,488
Type: functional, cell-based
measured_endpoint: Emax (%)
All answers are understood in %, so give the number only.

Would you please look over these solved cases?
COC(=O)[C@@H]1C[C@H](OC(=O)c2ccc(OC)cc2)C(=O)[C@H]2[C@@]1(C)CC[C@H]1C(=O)O[C@H](c3ccoc3)C[C@]21C 106
COC(=O)[C@@H]1C[C@H](OC(=O)c2ccsc2)C(=O)[C@H]2[C@@]1(C)CC[C@H]1C(=O)O[C@H](c3ccoc3)C[C@]21C 95

Data request: Look up Emax for this molecule: COC(=O)[C@@H]1C[C@H](OC(=O)c2cc3ccccc3o2)C(=O)[C@H]2[C@@]1(C)CC[C@H]1C(=O)O[C@H](c3ccoc3)C[C@]21C
Data returned: 109

Data request: Look up Emax for this molecule: COC(=O)[C@@H]1C[C@H](OC(=O)c2cccc(OC)c2)C(=O)[C@H]2[C@@]1(C)CC[C@H]1C(=O)O[C@H](c3ccoc3)C[C@]21C
Data returned: 97

Data request: Look up Emax for this molecule: COC(=O)[C@@H]1C[C@H](NC(C)=O)C(=O)[C@H]2[C@@]1(C)CC[C@H]1C(=O)O[C@H](c3ccoc3)C[C@]21C
Data returned: 108

All values here come from ChEMBL document CHEMBL1144846.
